- Setup Conditions: 288.15 K; 101 kPa; Liquid; Vibrating tube method
Value Type: mass density (kg/m3)

Input: Tell me the measured mass density of C1CCOC1 [tetrahydrofuran] , please.
Output: 893.293

Input: Request the reported mass density associated with CCOC(=O)C(C)O (racemic) [DL-ethyl lactate]
Output: 1039.28

Input: // lookup mass density for `OCCCO`
Output: 1055.89

Input: Item under review: `COCCOCCOCCOCCOC` . Reported mass density?
Output: 1016.7

Input: # mass density lookup, item CC(O)CO (stereo not given)
Output: 1039.87

====

- Method Notes: refractive index (Na D-line) (dimensionless)
- Setup Conditions: 313.15 K; 101.33 kPa; Liquid; Standard Abbe refractometry
Value Type: refractive index

Input: So what's the measured refractive index for this one? C1CCOC1 [tetrahydrofuran]
Output: 1.39659

Input: Fill in: refractive index of COCCOCCOCCOCCOC [2,5,8,11,14-pentaoxapentadecane] is ___
Output: 1.42447

Input: Which refractive index is reported for this molecule? CC(O)CO (stereo not given) [1,2-propanediol]
Output: 1.42591

Input: What value of refractive index has been reported for the following molecule? CCOC(=O)C(C)O (racemic) [DL-ethyl lactate]
Output: 1.40374

Input: Consider the molecule OCCCO [propan-1,3-diol] and give its measured refractive index.
Output: 1.43384

====

- Method Notes: refractive index (Na D-line) (dimensionless)
- Setup Conditions: 298.15 K; 101.33 kPa; Liquid; Standard Abbe refractometry
Value Type: refractive index

Input: Reported refractive index, compound OCCCO [propan-1,3-diol] : ____
Output: 1.43808

Input: Report refractive index for CCOC(=O)C(C)O (racemic) [DL-ethyl lactate] please.
Output: 1.41076

Input: Please look up its refractive index: C1CCOC1 [tetrahydrofuran]
Output: 1.40472

Input: Entry under review: CC(O)CO (stereo not given) [1,2-propanediol] . Reported refractive index?
Output: 1.43102

Input: Could you tell me which refractive index is on file for COCCOCCOCCOCCOC [2,5,8,11,14-pentaoxapentadecane] ?
Output: 1.43123

====

- Setup Conditions: 308.15 K; 101 kPa; Liquid; Concentric cylinders viscometry
Value Type: viscosity (mPa·s)

// solved cases for viscosity follow
Input: Look up viscosity for this molecule: CC(O)CO (stereo not given)
Output: 25.45

Input: Bench note: what viscosity did C1CCOC1 [tetrahydrofuran] show?
Output: 0.4433

Input: // returns reported viscosity for input CCOC(=O)C(C)O (racemic) [DL-ethyl lactate]
Output: 1.858

I = COCCOCCOCCOCCOC
II = OCCCO
Input: Between I and II , whose measured viscosity reads higher? // respond with label for picked entry
Output: II

====

- Setup Conditions: 318.15 K; 101 kPa; Liquid; Vibrating tube method
Value Type: mass density (kg/m3)

Input: Field request: mass density | item: OCCCO [propan-1,3-diol]
Output: 1037.11

Input: Any idea what mass density was measured for COCCOCCOCCOCCOC [2,5,8,11,14-pentaoxapentadecane] ?
Output: 988.892

Input: # lookup: mass density of C1CCOC1 [tetrahydrofuran]
Output: 860.213

Input: Report mass density for CC(O)CO (stereo not given) [1,2-propanediol] please.
Output: 1017.52

Input: // query mass density value for entry CCOC(=O)C(C)O (racemic) [DL-ethyl lactate]
Output: 1006.36
